Cited source for all entries: a melting point compilation (Tetko et al.; mined from patent text by program, amines drawn as free bases though some values may be those of a salt)

Readout name: melting point (°C)

P = CCCC(=O)Nc1n[nH]c2cc(-c3ccc4c(c3)OCO4)ccc12
Q = Clc1ccc(-c2nc(CCCCCCc3nnn[nH]3)oc2-c2ccc(Cl)cc2)cc1
Problem: Could you tell me which of P and Q has the lower melting point reading? Select an item and report its label.
Result: Q
(Q: 148 °C, P: 240 °C)

P = Cc1nn(C)c(O)c1C(=O)c1c(Cl)cccc1Cl
Q = COc1nn(-c2cccc(N(C)C(C)=O)c2)c(=O)n(Cc2ccc(Cl)cc2)c1=O
Problem: Of P and Q , which one carries the higher reported melting point? Select an item and report its label.
Result: P
(P: 250 °C, Q: 157 °C)

* * *

Below is a list of entries, each paired with its recorded melting point value.

Below, each entry is followed by its recorded melting point result.
COC(=O)c1ccc(Cn2c(=O)c3cc(C(=O)NCc4cccc(OC)c4)sc3n(C)c2=O)cc1C; 175 to 177 °C
CN1CCN(C2=Nc3cc(C(F)(F)F)ccc3Nc3cscc32)CC1; 202 °C
C=CCN1CCC23CC(=O)CCC2C1Cc1cccc(OC)c13 (centres undefined); 84 to 86 °C
CC(C)c1cccc(C(C)C)c1NC(=O)CN1CC2(CCCCC2)N(c2ccccc2)CC1=O; 158 to 160 °C
COc1ccc(Cn2nc(-c3ccc(S(C)=O)cc3)c(-c3ccc(F)cc3)cc2=O)cc1 (centres undefined); 81.3 to 81.5 °C

Problem: Reported melting point for CN(C)CC(Cc1ccccc1)NC(=O)c1ccccc1 (centres undefined) : what is it?
Result: 110 °C

Problem: Reported melting point for "CCSc1ccc2nc(C(F)(F)F)c(S(N)(=O)=O)n2n1" : what is it?
Result: 208 to 210 °C

Problem: Reported melting point for Cc1c(C)c2c(c(C)c1O)CCC(C)(CCOc1ccc(CC3SC(=N)NC3=O)cc1)O2 (centres undefined) : what is it?
Result: 175 to 180 °C

Problem: Reported melting point for Nc1nc2c(ncn2OC(CO)CCOCP(=O)(O)O)c(=O)[nH]1 (centres undefined) : what is it?
Result: 188 to 192 °C

* * *

Readout name: melting point

Below, each entry is followed by its recorded melting point result.
CC12CCC3C(CCC4CC(F)CCC43C)C1CCC2O (stereo not given); 150 to 151 °C
CCCC[C@H]1CC[C@H](OC(=O)c2cc(Sc3ccc(C)cc3)c3c(c2N)C(=O)c2ccccc2C3=O)CC1; 176 to 177 °C
CCN1c2ncc(/C=C/c3ccncc3)cc2C(=O)N(C)c2cccnc21; 150 °C
CC(=O)NNc1c(C)cnc2c(NC(=O)c3c(Cl)cccc3Cl)ccc(C)c12; 234 to 238 °C

As a next step, examine the compound that follows.
Problem: Reported melting point for COC(=O)C1=C(C)NC(C)=C(C(=O)OCC2CC2)C1c1cccc([N+](=O)[O-])c1 (stereo not given) : what is it?
Result: 160 to 163 °C

* * *

Below is a list of entries, each paired with its recorded melting point value.

Below, each entry is followed by its recorded melting point result.
CCC(CC)Nc1cc(C)nc(Nc2c(C)cc(C)cc2C)c1[N+](=O)[O-]; 104 to 107 °C
Clc1c2ccccc2nc2c1cnn2C1CCCC1; 97 to 98 °C
O=C(CCc1ccncc1)NC(Cc1c[nH]c2ccccc12)C(=O)CCc1cc(C(F)(F)F)cc(C(F)(F)F)c1 (centres undefined); 108 °C
O=c1[nH][nH]c(=O)c2c(O)c3c(Br)cccc3nc12; 280 to 281 °C
COCCN1C(=O)C(C)(C)C(=O)Nc2cc(C#N)ccc21; 184 to 185 °C

Problem: Reported melting point for OC1CSC(Oc2cc(-c3ccccn3)cc(F)c2F)C(O)C1O (centres undefined) : what is it?
Result: 162 °C

Problem: Reported melting point for CC1Oc2ccc(CN3CCN(c4ccc(C#N)cc4)CC3)cc2NC1=O (centres undefined) : what is it?
Result: 266 to 268 °C

Problem: Reported melting point for "COCn1ncc2cc(-c3nnc(S)o3)ccc21" : what is it?
Result: > 300 °C

* * *

Readout name: melting point

CCc1cc2c3c(ccc2[nH]1)OCC(CN1CC=C(c2c[nH]c4ccccc24)CC1)O3 (centres undefined); 175 to 177 °C
COc1cc([N+](=O)[O-])ccc1S(=O)(=O)n1c(=O)n(C2CCCCCC2)c2cc(Cl)ccc21; 193 °C
CC(C)=CCN1c2ccccc2NC(=O)C1C (racemic); 92 to 93 °C

Problem: Reported melting point for C=CCc1ccccc1OC(CC)C(=O)OC1CC(O)C=C2C=CC(C)C(CCC3CC(O)CC(=O)O3)C21 (mixture of isomers) : what is it?
Result: 143 to 145 °C

Problem: Reported melting point for "COc1cccc(CN2CCN(CCCOc3ccc4c(C)cc(=O)[nH]c4c3)CC2)c1" : what is it?
Result: 149 to 150 °C

Problem: Reported melting point for "CCOc1ccc([N+](=O)[O-])c(F)c1" : what is it?
Result: 48 °C

Problem: Reported melting point for "COCCOc1cc2nncc(Oc3cc(O)c(C)cc3F)c2cc1OC" : what is it?
Result: 267 to 273 °C

* * *

Below is a list of entries, each paired with its recorded melting point value.

NC(=O)c1nnn(Cc2ccccc2C(F)(F)F)c1N; 197 to 198 °C
CCCCCCCCCCCCNC(=O)COc1ccc(OC(=O)c2ccccc2)cc1[N+](=O)[O-]; 110 to 111 °C

Problem: Reported melting point for "CCOC(=O)Nc1cc(Cl)nc(NC(=O)OCC)n1" : what is it?
Result: 153 to 154 °C

Problem: Reported melting point for "O=C(OCC1CCCCCCCCCC1)n1c(-c2cscn2)nc2ccccc21" : what is it?
Result: 86 to 87 °C

* * *

Readout name: melting point

Cc1nc(-c2ccc(O)cc2)sc1C; 194 to 195 °C
CCOC(=O)c1cn(C2CC2)c2cc(-c3cc(C)nc(CO)c3)c(F)cc2c1=O; 240 °C
N#Cc1cccc(-n2ccc3cc(Cl)ccc32)c1; 120 to 122 °C
O=C(Cn1ccnc1)Nc1cccc2nc(N[C@@H]3CCc4ccccc43)ccc12; 226 °C
COCCC1CCN(c2ccc(C#N)c3sccc23)C1 (stereo unspecified); 88 to 89 °C

As a next step, examine the compound that follows.
Problem: Reported melting point for CCCCCCCCCCCCc1nnn(C(CCCC)C(=O)Nc2c(OC)cc(OC)cc2OC)n1 (stereo unspecified) : what is it?
Result: 152 to 154 °C

* * *

Below is a list of entries, each paired with its recorded melting point value.

Problem: Reported melting point for "CN1c2ccccc2C(=C2CCN(C(=O)OCC(Cl)(Cl)Cl)CC2)c2ccccc21" : what is it?
Result: 190 to 192 °C

Problem: Reported melting point for "FC(F)(F)Oc1ccc(-c2ccc(C=CCBr)cc2)cc1" : what is it?
Result: 121 to 123 °C

Problem: Reported melting point for Cc1c(C)c2c(c(C)c1O)C(C(=O)O)C(C)(C)O2 (stereo not given) : what is it?
Result: 161 to 164 °C

Problem: Reported melting point for "CON(C)C(=O)CCc1nnc(-c2ccc3c(c2)CCO3)o1" : what is it?
Result: 112 to 113 °C

Problem: Reported melting point for "Cc1c(-c2ccccc2F)[nH]c(NCc2ccccc2)c1C#N" : what is it?
Result: 151 to 152 °C

* * *

Readout name: melting point (°C)

CCOC(=O)c1c(Nc2ccccc2[N+](=O)[O-])c(C)cn1C; 114

a = Cc1nc(-c2nn(Cc3ccccc3F)c3ccccc23)oc1CO
b = ClCCCc1cc2cccnc2[nH]1
Problem: Could you tell me which of a and b has the lower melting point reading? Select an item and report its label.
Result: b

* * *

Below is a list of entries, each paired with its recorded melting point value.

Cc1cccc(-c2cn(C)cc(-c3cccc(C(F)(F)F)c3)c2=S)c1; 193 to 196 °C
CSC(=O)C(=O)c1cccc(NC=O)n1; 163 to 165 °C
CCN(C(=O)C1(C(=O)O)CC1)c1ccc(Cl)cc1; 99 to 101 °C
COc1ccc(C(C)CNC(=O)C(N)=O)cc1OC1CCCC1 (stereo not given); 175 to 176 °C
Oc1ccc(Cc2nc(-c3cccs3)c[nH]2)cc1; 189 to 191 °C

Problem: Reported melting point for "CCOC(=O)c1c(C(C)(C)O)nc(CC)n1Cc1ccc(-c2ccccc2-c2nnnn2C(c2ccccc2)(c2ccccc2)c2ccccc2)cc1" : what is it?
Result: 150 to 152 °C

Problem: Reported melting point for "COC(=O)Cc1ccc(-c2ccc(F)cc2F)c(F)c1" : what is it?
Result: 74 to 77 °C

Problem: Reported melting point for "CNC(=O)c1cc2ccc(OC)cc2n1CCNC(C)=O" : what is it?
Result: 177 to 178 °C

Problem: Reported melting point for "COc1ccc(C(=O)Nc2ccccc2)cc1NCc1ccoc1" : what is it?
Result: 188 to 190 °C

Problem: Reported melting point for "Cn1cc(OCC(F)(F)F)c(=O)c(-c2cccc(C(F)(F)F)c2)c1" : what is it?
Result: 97 to 99 °C
